experiment: glucagon-like peptide 1 release enhancers, primary assay, NCI-H716 cell line, NPC library (AID 1117341); conditions: NCI-H716 cells, at 10 µM, stronger effect = higher value; also: reference of the scale not given here
Active and inactive are the calls of the source.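 The calls were made as follows: active = compound raises GLP1 secretion from the human gut endocrine cells, with no numeric limit stated; inactive = the rest.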
Let's look at some compounds and their measured GLP1 secretion stimulation.

These recorded examples may help you get a feel for the data.
[
  {
    "compound": "Cc1nc2ccccc2n1Cc1ccc(Cl)cc1",
    "GLP1 secretion stimulation": "-1.7% (inactive)"
  },
  {
    "compound": "CNCc1ccccc1",
    "GLP1 secretion stimulation": "-3.4% (inactive)"
  },
  {
    "compound": "CN1CCN(C2=Nc3cc(Cl)ccc3Nc3ccccc32)CC1",
    "GLP1 secretion stimulation": "7.2% (inactive)"
  },
  {
    "compound": "CC(C)(C)NCC(O)COc1cccc2c1CCC(=O)N2 (stereo not drawn)",
    "GLP1 secretion stimulation": "1.2% (inactive)"
  },
  {
    "compound": "O=C(CCCCCCC(=O)Nc1ccccc1)NO",
    "GLP1 secretion stimulation": "0.5% (inactive)"
  }
]

Dear colleague, I am looking for the recorded GLP1 secretion stimulation of the following compound: "Cc1cc2c(cc1S(N)(=O)=O)S(=O)(=O)CCC2"
-0.7% (inactive)

Dear colleague, I am looking for the recorded GLP1 secretion stimulation of the following compound: "C[C@H](O)CN(C)C"
-2.5% (inactive)

Dear colleague, I am looking for the recorded GLP1 secretion stimulation of the following compound: "O=C(O)CP(=O)(O)O"
0.3% (inactive)
